Taken from ChEMBL document CHEMBL1141070.

- method notes: Elimination phase half-life after administration to rats at a dose of 0.5 mg/kg intravenously
- Type: ADME, organism-based
- Parameters: dose 0.5 mg/kg, route intravenous
- stated conditions: rat, in vivo, iv
experimental endpoint: half-life
# output: numeric value plus its unit

Ask: Kindly indicate its recorded half-life. Item: "O=C(O)C1(c2ccc(-c3ccc(C(F)(F)F)cc3)c(F)c2)CC1"
Reply: 36.2 h

###

I'd appreciate it if you could supply Papp values for the items below.
- method notes: Intestinal drug absorption was estimated in vitro using human colon adenocarcinoma (Caco-2) cell monolayers
- Format: ADME

Worked examples, 5 compounds total:
>  <compound>
CC(C(=O)O)c1ccc(-c2cc(Cl)cc(Cl)c2)c(F)c1 (stereo not drawn)

>  <Papp>
> 5 ×10⁻⁶ cm/s

$$$$
>  <compound>
CC(C(=O)O)c1ccc(-c2csc3ccccc23)c(F)c1 (stereo not drawn)

>  <Papp>
> 5 ×10⁻⁶ cm/s

$$$$
>  <compound>
COc1ccc(-c2ccc(C(C)C(=O)O)cc2F)cc1 (stereo not drawn)

>  <Papp>
> 5 ×10⁻⁶ cm/s

$$$$
>  <compound>
O=C(O)C1(c2ccc(-c3ccc(-c4ccc(O)cc4)cc3)c(F)c2)CC1

>  <Papp>
> 5 ×10⁻⁶ cm/s

$$$$
>  <compound>
CC(C(=O)O)c1ccc(-c2ccccc2)c(F)c1 (stereo not drawn) [FLURBIPROFEN]

>  <Papp>
> 5 ×10⁻⁶ cm/s

$$$$

For the 5 compounds below, give their Papp values.
1. CC1(C)CCC(c2ccc(-c3ccc(C4(C(=O)O)CC4)cc3F)cc2)CC1
2. O=C(O)C1(c2ccc(-c3ccc(-c4ccc(O)cc4)c(F)c3)c(F)c2)CC1
3. O=C(O)C1(c2ccc(-c3csc4ccccc34)c(F)c2)CC1
4. CC(C(=O)O)c1ccc(-c2ccc(OC3CCCCC3)cc2)c(F)c1 (stereo not drawn)
5. CC(C(=O)O)c1ccc(-c2ccc(Cl)c(Cl)c2)c(F)c1 (stereo not drawn)

Reply:
["< 1 ×10⁻⁶ cm/s", "> 5 ×10⁻⁶ cm/s", "> 5 ×10⁻⁶ cm/s", "> 5 ×10⁻⁶ cm/s", "> 5 ×10⁻⁶ cm/s"]

For the 3 compounds below, give their Papp values.
1. O=C(O)C1(c2ccc(-c3ccc(-c4ccc(F)cc4)c(F)c3)c(F)c2)CC1
2. CC(C(=O)O)c1ccc(-c2ccc(-c3ccc(O)cc3)cc2)c(F)c1 (stereo not drawn)
3. O=C(O)C1(c2ccc(-c3ccccc3)c(F)c2)CC1

Reply:
1: < 1 ×10⁻⁶ cm/s; 2: > 5 ×10⁻⁶ cm/s; 3: > 5 ×10⁻⁶ cm/s

###

- method notes: Maximal concentration in rats after 0.5 mg/kg oral dose
- Assay type: ADME, organism-based
- Design: dose 0.5 mg/kg, route oral
- stated conditions: rat, in vivo
experimental endpoint: Cmax
# output: numeric value plus its unit

Ask: Kindly indicate its recorded Cmax. Item: O=C(O)C1(c2ccc(-c3ccc(OC4CCC(C(F)(F)F)CC4)cc3)c(F)c2)CC1 (stereo unspecified)
Reply: 300 ng/mL

###

- method notes: Intestinal drug absorption was estimated in vitro using human colon adenocarcinoma (Caco-2) cell monolayers; Range is 10-50 nm/s
- Type: ADME
experimental endpoint: Papp (×10⁻⁶ cm/s)
One number for each entry, in ×10⁻⁶ cm/s.

Ask: Kindly indicate its recorded Papp. Item: CC(C(=O)O)c1ccc(-c2ccc(C3CCCCC3)cc2)c(F)c1 (stereo unspecified)
Reply: 5
